Hello, the source for this data is PubChem BioAssay (NCI), in case you need it.

Tested on: SF-539 CNS
assay procedure: NCI-60 one-dose screen, 48 h (100 = growth as untreated, 0 = no growth, -100 = all killed)
stated conditions: 10 µM unless noted
About 83,000 compounds went through this panel and 20% of them were active in at least one assay; those are over-represented in the sample as a whole.
Entries and their measured growth follow.
Quick note: give the figure in %, leave out the unit.

Enquiry: May I ask what growth has been recorded for COc1cccc(C(Cc2ccccc2)Nc2ccccc2)c1OC (stereo unspecified) ?
Return: 104

Enquiry: May I ask what growth has been recorded for COC(=O)C1NC(=S)N(c2ccc(Cl)cc2)C1/C=C/c1ccccc1 (stereo unspecified) ?
Return: 94.6

Enquiry: May I ask what growth has been recorded for C(=N\Nc1ncc(-c2cc3cc4c(cc3o2)OCO4)s1)/c1c[nH]c2ccccc12 ?
Return: -80

Enquiry: May I ask what growth has been recorded for COc1cc2nc(-c3ccc(C(F)(F)F)cc3)cc(OCCN3CCCC3)c2cc1OC ?
Return: 81.1

Enquiry: May I ask what growth has been recorded for COc1ccc(C(=O)c2cc3c(N)c(C(=O)Nc4ccc(Br)cc4)sc3nc2C)cc1 ?
Return: 66.2

Enquiry: May I ask what growth has been recorded for C[C@]12C[C@H]1CC[C@]1(C)[C@@H]2CC[C@@]23C[C@H](CC[C@H]21)[C@@](O)(CO)C3 ?
Return: 93

###

System: OVCAR-8 ovarian
assay procedure: NCI-60 one-dose screen, 48 h (100 = growth as untreated, 0 = no growth, -100 = all killed)
stated conditions: 10 µM unless noted
Experimental: Growth inhibition of the OVCAR-8 human tumor cell line is measured as a screen for anti-cancer activity. Cells are grown in 96 well plates and exposed to the test compound for 48 hours. Compounds are tested at a single concentration, which is 10^-5 M for most compounds. The reported endpoint is percent growth (GI% or GIPRCNT), where numbers from 0 - 100% represent growth inhibition, and numbers from -100% - 0 represent cell death. For example, a value of 40 represents 60% growth inhibition. […]
This is part of a sample that, as a whole, favours compounds with a hit. Of some 83,000 tested, about 20% had one in any assay.
experimental readout: growth (%)
Quick note: give the figure in %, leave out the unit.

>>> value_measured("COc1ccc(-c2nc(SC(C)C)nc(NNC(N)=O)c2C#N)cc1")
96.9

Enquiry: May I ask what growth has been recorded for Nc1nnc(C(=O)c2cnc3n(c2=O)CCCCC3)s1 ?
Return: 105

Enquiry: May I ask what growth has been recorded for CCN(CC)CCOC(COc1cc(C)cc(C)c1)COc1cc(C)cc(C)c1 ?
Return: 58.6

Enquiry: May I ask what growth has been recorded for COc1cc(NCC(O)CN(CC(C)C)C2CCCC2)c2ncccc2c1 (stereo unspecified) ?
Return: 86.5

Enquiry: May I ask what growth has been recorded for COc1cc(CCNc2nc3cc(N)cc(N)c3nc2-c2ccccc2)cc(OC)c1 ?
Return: -22.2

Enquiry: May I ask what growth has been recorded for O=C(Nc1ccccc1)Oc1ccccc1-c1ccccc1 ?
Return: 98.4

Enquiry: May I ask what growth has been recorded for O=C(CCN1CCCC1)Nc1ccc2c(NCc3ccc(F)cc3)c3ccccc3nc2c1 ?
Return: 2.58

Enquiry: May I ask what growth has been recorded for O=S(=O)(NCCCNc1nccc(-c2c(-c3cccc(O)c3)nc3occn23)n1)c1ccc(Br)cc1 ?
Return: 86

Enquiry: May I ask what growth has been recorded for COc1cc2c(cc1[N+](=O)[O-])-c1ccc([N+](=O)[O-])cc1/C2=N/NC(N)=S ?
Return: 51.9

Enquiry: May I ask what growth has been recorded for CCC1(CC)NC(=O)c2c(c3ccc(Cl)c(Cl)c3n2C)C1C#N (stereo unspecified) ?
Return: 93.6

Enquiry: May I ask what growth has been recorded for COc1ccc(-c2nn(Cc3ccccc3)c3c2-c2oncc2CC3)cc1OC ?
Return: 89

Enquiry: May I ask what growth has been recorded for Nc1cc(N)c2cccnc2c1O ?
Return: 68.6

Enquiry: May I ask what growth has been recorded for O=C1Nc2cc(-c3ccncc3)ccc2/C1=C/c1ccc[nH]1 ?
Return: 101

Enquiry: May I ask what growth has been recorded for COc1ccc(-c2nc(N/N=C/c3cccc(Br)c3)nc(N3CCOCC3)c2C#N)cc1 ?
Return: 69.9

Enquiry: May I ask what growth has been recorded for COc1cc2nc(-c3ccc(C#N)cc3)[nH]c(=O)c2cc1OC ?
Return: 102

Enquiry: May I ask what growth has been recorded for O=S(=O)(NCCCNc1nccc(-c2c(-c3ccc(F)c(O)c3)nc3sccn23)n1)c1ccc(F)cc1 ?
Return: -11.9

Enquiry: May I ask what growth has been recorded for S=c1[nH]cccc1-c1nnc2n1Nc1nc3ccc(Cl)cc3cc1CS2 ?
Return: 102
